Where do the numbers come from? From patent US7981883B2.

TESTED ON: VR1 (rat) (Rattus norvegicus)
Construct: from tissue; host or cells: primary cells dissociated from rat dorsal root ganglia
Sequence (O35433 whole entry): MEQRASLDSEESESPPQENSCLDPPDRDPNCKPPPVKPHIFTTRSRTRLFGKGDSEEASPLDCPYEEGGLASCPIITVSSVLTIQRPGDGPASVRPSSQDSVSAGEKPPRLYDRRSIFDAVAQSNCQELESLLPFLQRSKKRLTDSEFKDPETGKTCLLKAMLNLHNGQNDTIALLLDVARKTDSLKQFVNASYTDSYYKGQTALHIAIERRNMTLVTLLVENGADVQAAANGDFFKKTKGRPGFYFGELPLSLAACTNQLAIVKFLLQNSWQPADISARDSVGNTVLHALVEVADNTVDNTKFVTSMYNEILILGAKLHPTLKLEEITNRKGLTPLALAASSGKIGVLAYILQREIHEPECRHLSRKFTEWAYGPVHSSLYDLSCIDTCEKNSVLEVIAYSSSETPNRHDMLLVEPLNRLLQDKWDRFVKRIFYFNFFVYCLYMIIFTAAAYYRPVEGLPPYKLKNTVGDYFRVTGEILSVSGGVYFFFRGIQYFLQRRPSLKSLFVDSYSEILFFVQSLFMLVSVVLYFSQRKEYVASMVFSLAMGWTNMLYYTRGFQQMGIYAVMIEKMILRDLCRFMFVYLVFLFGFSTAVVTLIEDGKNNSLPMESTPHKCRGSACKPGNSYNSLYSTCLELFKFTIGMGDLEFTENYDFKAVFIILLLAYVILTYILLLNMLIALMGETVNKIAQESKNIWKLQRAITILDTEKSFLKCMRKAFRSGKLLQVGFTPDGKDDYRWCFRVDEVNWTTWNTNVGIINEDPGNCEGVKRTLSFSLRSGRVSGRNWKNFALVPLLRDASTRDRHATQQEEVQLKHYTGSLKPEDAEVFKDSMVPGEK
ASSAY REMARKS: Functional FLIPR Ca2+ inflow assay on rat-species vanilloid receptor 1 in rat dorsal root ganglia cells
Assay type: cell-based
RUN PARAMETERS: test compound 10 μM, then 100 nM capsaicin after 5 min; relative to maximum inhibition with 10 μM capsaicin; read-out: VR1 (rat) (% inhibition compared to 10 μM CP)
Listed compounds paired with reported inhibition at 10 µM

COMPOUND	UNIT OF MEASUREMENT	inhibition at 10 µM
CC(C)(C)C1CCC2(CC1)CC(C(=O)N1CCc3cc(O)c(O)cc3C1)=NO2 (stereo not shown)	%	94.3
CC(C)(C)[C@H]1CC[C@@]2(CC1)CC(C(=O)NCc1ccc(NS(C)(=O)=O)c(F)c1)=NO2	%	105
CC(C)(C)C1CCC2(CC1)CC(C(=O)Nc1ccc(NS(C)(=O)=O)c(F)c1)=NO2 (stereo not shown)	%	100
CC(C)(C)C1CCC2(CC1)CC(C(=O)NCc1ccc(N)cc1)=NO2 (stereo not shown)	%	71.3
CCC(C)(C)C1CCC2(CC1)CC(C(=O)NCc1ccc(NS(C)(=O)=O)c(F)c1)=NO2 (stereo not shown)	%	103
CC(C)(C)C1CCC2(CC1)CC(C(=O)Nc1cccc3cnccc13)=NO2 (stereo not shown)	%	73.7
CC(C)(C)c1ccc(NC(=O)C2CCC3(CC2)CC(C(=O)N2CCN(c4ncccc4Cl)CC2)=NO3)cc1 (stereo not shown)	%	103
CC(C)(C)[C@H]1CC[C@]2(CC1)CC(C(=O)NCc1ccc(NS(C)(=O)=O)c(F)c1)=NO2	%	98.3
CC(C)(C)c1ccc(NC(=O)C2CCC3(CC2)CC(c2ccccc2)=NO3)cc1 (stereo not shown)	%	97
COc1cccc(C2=NOC3(CCC(C(=O)Nc4ccc(C(C)(C)C)cc4)CC3)C2)c1 (stereo not shown)	%	101
